tested on: A549; assay: Growth inhibition of human A549 cells after 48 hrs by CellTiter-Glo assay in presence of 25 mM glucose; assay type: functional; details: A549, 48 h
Recorded measurements of GI50, one per entry

>  <Structure Smiles>
CS(=O)(=O)Nc1ccccc1Nc1nc(Nc2ccc(Oc3ccccc3)cc2)ncc1F

>  <GI50>
26.9 µM

$$$$
>  <Structure Smiles>
C#CCCCC(=O)Nc1ccc(C(=O)c2ccc(Nc3ncc(F)c(Nc4ccccc4NS(C)(=O)=O)n3)cc2)cc1

>  <GI50>
13.3 µM

$$$$
>  <Structure Smiles>
CS(=O)(=O)Nc1ccccc1Nc1nc(Nc2ccc(C(=O)OCc3ccccc3)cc2)ncc1F

>  <GI50>
> 50 µM

$$$$
>  <Structure Smiles>
CS(=O)(=O)Nc1ccccc1Nc1nc(Nc2ccc(Cl)cc2)ncc1F

>  <GI50>
> 50 µM

$$$$

----------
system: NCI-H522; assay: Growth inhibition of human NCI-H522 cells after 48 hrs by CellTiter-Glo assay in presence of 25 mM glucose; type: functional; details: NCI-H522, 48 h

>  <Structure Smiles>
C#CCCCC(=O)Nc1ccc(C(=O)c2ccc(Nc3ncc(F)c(Nc4ccccc4NS(C)(=O)=O)n3)cc2)cc1

>  <Scale Unit>
µM

>  <GI50>
2.9

$$$$
>  <Structure Smiles>
CS(=O)(=O)Nc1ccccc1Nc1nc(Nc2ccc(Oc3ccccc3)cc2)ncc1F

>  <Scale Unit>
µM

>  <GI50>
7.3

$$$$
>  <Structure Smiles>
CS(=O)(=O)Nc1ccccc1Nc1nc(Nc2ccc(Cl)cc2)ncc1F

>  <Scale Unit>
µM

>  <GI50>
12.2

$$$$
>  <Structure Smiles>
CS(=O)(=O)Nc1ccccc1Nc1nc(Nc2ccc(C(=O)OCc3ccccc3)cc2)ncc1F

>  <Scale Unit>
µM

>  <GI50>
16.5

$$$$

----------
Each entry below lists one item and its recorded GI50 value.
system: A549; assay: Growth inhibition of human A549 cells after 48 hrs by CellTiter-Glo assay in presence of 5 mM glucose; assay type: functional; conditions: A549, 48 h

>  <Structure Smiles>
CS(=O)(=O)Nc1ccccc1Nc1nc(Nc2ccc(C(=O)OCc3ccccc3)cc2)ncc1F

>  <Operator>
>

>  <GI50 / µM>
50

$$$$
>  <Structure Smiles>
C#CCCCC(=O)Nc1ccc(C(=O)c2ccc(Nc3ncc(F)c(Nc4ccccc4NS(C)(=O)=O)n3)cc2)cc1

>  <Operator>
=

>  <GI50 / µM>
15.5

$$$$
>  <Structure Smiles>
CS(=O)(=O)Nc1ccccc1Nc1nc(Nc2ccc(Cl)cc2)ncc1F

>  <Operator>
>

>  <GI50 / µM>
50

$$$$
>  <Structure Smiles>
CS(=O)(=O)Nc1ccccc1Nc1nc(Nc2ccc(Oc3ccccc3)cc2)ncc1F

>  <Operator>
=

>  <GI50 / µM>
37.4

$$$$

----------
test system: HeLa; assay: Growth inhibition of human HeLa cells after 48 hrs by CellTiter-Glo assay in presence of 5 mM glucose; type: functional

>  <Structure Smiles>
C#CCCCC(=O)Nc1ccc(C(=O)c2ccc(Nc3ncc(F)c(Nc4ccccc4NS(C)(=O)=O)n3)cc2)cc1

>  <GI50 / µM>
5.7

$$$$
>  <Structure Smiles>
CS(=O)(=O)Nc1ccccc1Nc1nc(Nc2ccc(Oc3ccccc3)cc2)ncc1F

>  <GI50 / µM>
14

$$$$
>  <Structure Smiles>
CS(=O)(=O)Nc1ccccc1Nc1nc(Nc2ccc(Cl)cc2)ncc1F

>  <GI50 / µM>
61

$$$$
>  <Structure Smiles>
CS(=O)(=O)Nc1ccccc1Nc1nc(Nc2ccc(C(=O)OCc3ccccc3)cc2)ncc1F

>  <GI50 / µM>
61.9

$$$$

----------
molecular target: Lactoylglutathione lyase (Homo sapiens, UniProt Q04760); test: Inhibition of recombinant GLO-1 (unknown origin) assessed as S-D-lactoylglutathione formation preincubated for 1 hr followed by methylglyoxal and GSH addition measured after 9 mins by spectrophotometric analysis
Sequence (Q04760 whole entry): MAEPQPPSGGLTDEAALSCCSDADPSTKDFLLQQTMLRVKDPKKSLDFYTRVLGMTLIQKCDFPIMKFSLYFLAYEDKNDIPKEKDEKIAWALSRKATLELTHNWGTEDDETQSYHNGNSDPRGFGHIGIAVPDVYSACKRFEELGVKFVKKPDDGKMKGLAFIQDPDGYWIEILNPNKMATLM
pIC50: −log10 of the molar value.
Assay Endpoint: pIC50

>  <Structure Smiles>
CS(=O)(=O)Nc1ccccc1Nc1nc(Nc2ccc(C(=O)OCc3ccccc3)cc2)ncc1F

>  <Assay Endpoint>
pIC50

>  <Measured Number>
7.29

$$$$
>  <Structure Smiles>
C#CCCCC(=O)Nc1ccc(C(=O)c2ccc(Nc3ncc(F)c(Nc4ccccc4NS(C)(=O)=O)n3)cc2)cc1

>  <Assay Endpoint>
pIC50

>  <Measured Number>
7.58

$$$$
>  <Structure Smiles>
CS(=O)(=O)Nc1ccccc1Nc1nc(Nc2ccc(Oc3ccccc3)cc2)ncc1F

>  <Assay Endpoint>
pIC50

>  <Measured Number>
7.34

$$$$
>  <Structure Smiles>
CS(=O)(=O)Nc1ccccc1Nc1nc(Nc2ccc(Cl)cc2)ncc1F

>  <Assay Endpoint>
pIC50

>  <Measured Number>
7.27

$$$$
